# Lookup of reported U937 Cytotoxicity Human T-cells [M] (EC50) keyed by entry
- Experimental target: T1, human CD3 expressed on cells (Jurkat, a CD3+ human T-cell line; human T cells) (human, UniProt P07766 23-126; P04234 22-100)
- T1 chain 1: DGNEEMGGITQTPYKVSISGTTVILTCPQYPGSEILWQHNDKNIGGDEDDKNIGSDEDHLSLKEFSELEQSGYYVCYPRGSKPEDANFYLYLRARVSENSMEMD
- T1 chain 2: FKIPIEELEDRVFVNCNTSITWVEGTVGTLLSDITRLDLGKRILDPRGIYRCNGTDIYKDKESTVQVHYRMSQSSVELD
- Assay remarks: cell-based or functional assay
Observation type: U937 Cytotoxicity Human T-cells [M] (EC50) (M)

>  <Binder>
BS3/20-004 (bispecific antibody, V domains shown) VH 1: EVQLVESGGGLVQPGRSLRLSCVASGFTFNDYAMHWVRQAPGKGLEWVSVISWNSDSIGYADSVKGRFTISRDNAKNSLYLQMHSLRAEDTALYYCAKDNHYGSGSYYYYQYGMDVWGQGTTVTVSS VH 2: QVQLVESGGGVVQPGRSLRLSCAASGFTFRSYAMHWVRQAPGKGLEWVAMVYYDGNNQYYADSVRGRFTISRDNSKNTLYLQMNSLRADDTAVYFCARGPGYNWLDPWGQGTLVTVSS VL: EIVMTQSPATLSVSPGERATLSCRASQSVSRNLAWYQQKPGQAPRLLIYGASTRATGIPARFSGSGSGTDFTLTISSLQSEDFAVYYCQQYNNWPLTFGGGTKVVIK

>  <Unit text>
M

>  <Recorded number>
6.07e-11

$$$$
>  <Binder>
BS3/20-002 (bispecific antibody, V domains shown) VH 1: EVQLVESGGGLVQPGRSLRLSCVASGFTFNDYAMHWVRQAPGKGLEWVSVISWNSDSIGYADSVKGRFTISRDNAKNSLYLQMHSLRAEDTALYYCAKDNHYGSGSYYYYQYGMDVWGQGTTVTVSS VH 2: EVQLVESGGGLVQPGGSLRLSCAATGFTFDDFTMHWVRQAPGKGLEWVSGISWNSGSIGYVDSVKGRFTISRDNAKNSLYLQMNSLRAEDTALYYCAKDNSGYGYYYYGMDVWGQGTTVTVSS VL: EIVMTQSPATLSVSPGERATLSCRASHSVSRNSAWYQQKPGQAPRLLIYGASTRATGIPARFSGSGSGTEFTLTISSLQSEDFAIYYCQQYNNWPLTFGGGTKVEIK

>  <Unit text>
M

>  <Recorded number>
8.24e-10

$$$$
>  <Binder>
BS3/20-001 (bispecific antibody, V domains shown, also called CD3×CD20 bispecific antibody) VH 1: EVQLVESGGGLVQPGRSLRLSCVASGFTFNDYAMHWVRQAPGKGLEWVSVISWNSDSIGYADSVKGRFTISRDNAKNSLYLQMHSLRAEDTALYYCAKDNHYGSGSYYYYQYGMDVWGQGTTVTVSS VH 2: EVQLVESGGGLVQPGRSLRLSCAASGFTFDDYTMHWVRQAPGKGLEWVSGISWNSGSIGYADSVKGRFTISRDNAKKSLYLQMNSLRAEDTALYYCAKDNSGYGHYYYGMDVWGQGTTVTVAS VL: AEIVMTQSPATLSVSPGERATLSCRASQSVSSNLAWYQQKPGQAPRLLIYGASTRATGIPARFSGSGSGTEFTLTISSLQSEDFAVYYCQHYINWPLTFGGGTKVEIK

>  <Unit text>
M

>  <Recorded number>
8.86e-11

$$$$
